# measurement protocol: Clearance in Sprague-Dawley rat at 0.1 mg/kg, iv measured upto 24 hrs by LCMS/MS analysis
# Format: ADME, organism-based
# recorded conditions: in vivo
clearance values, listed per item
State the answer as a number, implicitly in mL/min/kg.

INSERT INTO measurements (structure_smiles, metric, numeric_readout) VALUES
  ('Cc1n[nH]c(C)c1-c1ccc(NC(=O)[C@@H](NC(=O)c2ccnn2C(C)C)C(C2CC2)C2CC2)cc1', 'clearance', 7.4);

For the next question, use this compound.
Task: Supply measured clearance of `Cc1n[nH]c(C)c1-c1ccc(NC(=O)[C@@H](NC(=O)c2ccnn2C)C(c2ccccc2)c2ccccc2)cc1` in your reply.
Output: 7

====

# measurement protocol: Metabolic stability in human liver microsomes assessed as apparent clearance at 0.5 uM measured upto 40 mins in presence of NADPH by LCMS/MS analysis
# Assay type: ADME, Microsome
# recorded conditions: read-out: CLH
metric: CLint scaled at 0.5 µM

INSERT INTO assay_data (molecule, metric, result) VALUES
  ('Cc1n[nH]c(C)c1-c1ccc(NC(=O)C(NC(=O)c2ccnn2C)C2CCC3(CC2)CC3)cc1 (configuration not stated)', 'CLint scaled at 0.5 µM', '< 8 mL/min/kg');

Task: Supply measured CLint scaled at 0.5 µM of `CCn1nccc1C(=O)N[C@H](C(=O)Nc1ccc(-c2c(C)n[nH]c2C)cc1)C(C1CC1)C1CC1` in your reply.
Output: < 8 mL/min/kg

Task: Supply measured CLint scaled at 0.5 µM of `Cc1n[nH]c(C)c1-c1ccc(NC(=O)[C@@H](NC(=O)c2ccnn2C(C)C)C(C2CCC2)C2CCC2)cc1` in your reply.
Output: 52 mL/min/kg

Task: Supply measured CLint scaled at 0.5 µM of `Cc1n[nH]c(C)c1-c1ccc(NC(=O)[C@@H](NC(=O)c2ccnn2C)[C@H]2CC[C@H](C)CC2)cc1` in your reply.
Output: < 8 mL/min/kg

Task: Supply measured CLint scaled at 0.5 µM of `Cc1n[nH]c(C)c1-c1ccc(NC(=O)[C@H](Cc2ccccc2Cl)NC(=O)c2ccnn2C)cc1` in your reply.
Output: 24 mL/min/kg

Task: Supply measured CLint scaled at 0.5 µM of `Cc1n[nH]c(C)c1-c1ccc(NC(=O)[C@@H](NC(=O)c2ccnn2C)C2CCCCC2)cc1` in your reply.
Output: < 8 mL/min/kg

Task: Supply measured CLint scaled at 0.5 µM of `Cc1n[nH]c(C)c1-c1ccc(NC(=O)[C@@H](NC(=O)c2ccnn2C)C(c2ccccc2)c2ccccc2)cc1` in your reply.
Output: < 8 mL/min/kg

====

# measurement protocol: Oral bioavailability in Sprague-Dawley rat at 2.6 mg/kg measured upto 24 hrs by LCMS/MS analysis
# Assay type: ADME, organism-based
# recorded conditions: in vivo
bioavailability values, listed per item
State the answer as a number, implicitly in %.

INSERT INTO measurements (structure_smiles, numeric_readout) VALUES
  ('Cc1n[nH]c(C)c1-c1ccc(NC(=O)[C@@H](NC(=O)c2ccnn2C(C)C)C(C2CC2)C2CC2)cc1', 100);

For the next question, use this compound.
Task: Supply measured bioavailability of `Cc1n[nH]c(C)c1-c1ccc(NC(=O)[C@@H](NC(=O)c2ccnn2C)C(c2ccccc2)c2ccccc2)cc1` in your reply.
Output: 26
